Assayed target: hRSV (inactivated hRSV strain Long, Hytest #8RSV79), F protein on virus particles (human respiratory syncytial virus, …, UniProt P12568 26-574)
Assay name: binding ELISA on coated hRSV (Hytest), anti-VHH detection
Parameter measured: pEC50
Reminder that pEC50 means the negative base-10 logarithm of the concentration expressed in mol/L.

Problem: Check the records and state pEC50 for RSVPMP15B3 (VHH) VHH: EVQLVESGGGLVQPGGSLRLSCAASGLTLDYYALGWFRQAPGKEREGVSCISSSDHSTTYTDSVKGRFTISWDNAKNTLYLQMNSLKPGDTAVYYCAADPALGCYSGSYYPRYDYWGQGTQVTVSS
Result: 10.24

Problem: Check the records and state pEC50 for RSVPMP15H8 (VHH) VHH: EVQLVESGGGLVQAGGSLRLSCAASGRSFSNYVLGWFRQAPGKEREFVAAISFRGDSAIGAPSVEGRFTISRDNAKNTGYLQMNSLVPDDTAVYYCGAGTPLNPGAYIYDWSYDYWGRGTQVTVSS
Result: 9.08

Problem: Check the records and state pEC50 for LG191E4 (VHH) VHH: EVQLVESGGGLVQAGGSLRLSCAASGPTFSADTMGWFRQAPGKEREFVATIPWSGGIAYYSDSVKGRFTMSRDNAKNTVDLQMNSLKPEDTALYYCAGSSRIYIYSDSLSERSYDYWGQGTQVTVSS
Result: 10.08

Problem: Check the records and state pEC50 for LG191D3 (VHH) VHH: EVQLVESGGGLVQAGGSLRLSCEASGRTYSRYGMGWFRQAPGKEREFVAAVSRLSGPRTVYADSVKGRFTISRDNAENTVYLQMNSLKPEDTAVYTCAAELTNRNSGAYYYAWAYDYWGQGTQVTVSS
Result: 9.82
